test: Toxicity in brine shrimp larvae; type: organism-based; settings: artemia, in vivo
quantityMeasured: LC50 (µg/mL)
Reply with just the number (in µg/mL).

Exercise: For the molecule C=CCc1cc(OC)c(OC)c(OC)c1OC , what LC50 is on record?
Key: 144

Taken from ChEMBL document CHEMBL1158194.
